Cited source for all entries: patent US20240336909

# Test system: AxCT mask27 EGFR EH104 L059 version 1
Measurement label: Percent cleavage (%)
Numbers only, in %.

protein="Matriptase (protein) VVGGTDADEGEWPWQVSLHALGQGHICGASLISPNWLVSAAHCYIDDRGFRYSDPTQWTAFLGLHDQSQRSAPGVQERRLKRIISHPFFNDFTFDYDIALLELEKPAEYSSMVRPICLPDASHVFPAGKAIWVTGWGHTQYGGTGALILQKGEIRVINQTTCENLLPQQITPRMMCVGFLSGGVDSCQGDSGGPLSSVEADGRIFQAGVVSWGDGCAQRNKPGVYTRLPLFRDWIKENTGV" quantity_unit=% endpoint_value=33

In the following, a different protein is considered.
Query: Name the recorded Percent cleavage of the item MMP-12 (protein) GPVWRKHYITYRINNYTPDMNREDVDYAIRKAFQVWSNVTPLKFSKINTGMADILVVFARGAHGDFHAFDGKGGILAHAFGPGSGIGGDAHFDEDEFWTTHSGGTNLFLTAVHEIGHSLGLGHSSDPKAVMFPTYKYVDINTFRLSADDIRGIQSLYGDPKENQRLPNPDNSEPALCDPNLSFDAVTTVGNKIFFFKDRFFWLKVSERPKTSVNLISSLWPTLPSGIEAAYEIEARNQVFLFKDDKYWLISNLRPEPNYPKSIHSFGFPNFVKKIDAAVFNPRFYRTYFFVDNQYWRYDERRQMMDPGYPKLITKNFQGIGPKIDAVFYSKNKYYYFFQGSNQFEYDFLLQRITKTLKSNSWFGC in your answer.
Response: 62
